Source: paper PMC11721672

biological target: hGLP1 receptor (Homo sapiens); construct: expressed in transfected cells; host or cells: HEK (human embryonic kidney) cells co-expressing hGLP1 receptor and CRE-Luciferase; assay: GLP-1 receptor agonism assay (HTRF cAMP, HEK cells co-expressing hGLP1 receptor and CRE-Luciferase); assay type: cell-based; details: versus respective parent analog
Sequence (P43220 24-463): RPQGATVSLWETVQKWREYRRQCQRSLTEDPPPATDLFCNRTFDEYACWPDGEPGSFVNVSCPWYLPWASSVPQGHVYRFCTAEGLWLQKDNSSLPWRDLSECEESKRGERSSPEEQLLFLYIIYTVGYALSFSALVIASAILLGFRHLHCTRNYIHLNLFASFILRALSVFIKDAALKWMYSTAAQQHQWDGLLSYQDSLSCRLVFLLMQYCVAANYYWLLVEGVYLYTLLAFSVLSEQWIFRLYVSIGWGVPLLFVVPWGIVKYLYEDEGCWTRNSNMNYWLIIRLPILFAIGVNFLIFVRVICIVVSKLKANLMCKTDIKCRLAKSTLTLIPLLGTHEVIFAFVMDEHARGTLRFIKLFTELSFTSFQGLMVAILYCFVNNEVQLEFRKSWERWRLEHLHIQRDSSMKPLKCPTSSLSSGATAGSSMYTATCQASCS
Square brackets hold non-standard residues; d marks the D form. Peptide text beside a SMILES is read from it. Bip = N[C@@H](Cc1ccc(-c2ccccc2)cc1)C(=O)O; αMePhe(2-F) = C[C@](N)(Cc1ccccc1F)C(=O)O; Phe(2-F) = N[C@@H](Cc1ccccc1F)C(=O)O; Aib = CC(C)(N)C(=O)O
Here, each record is paired with measured decreased potency (Aib/Ala comparison) data.

Solved entries:
COMPOUND	decreased potency (Aib/Ala comparison)
C[C@@H](O)[C@H](NC(=O)CNC(=O)[C@H](CCC(=O)O)NC(=O)C(C)(C)NC(=O)[C@@H](N)Cc1c[nH]cn1)C(=O)N[C@@](C)(Cc1ccccc1F)C(=O)N[C@H](C(=O)N[C@@H](CO)C(=O)N[C@@H](CC(=O)O)C(=O)NC(C)(C)C(=O)N[C@@H](Cc1ccc(-c2ccccc2)cc1)C(N)=O)[C@@H](C)O [RXL-3051] (H-H[Aib]EGT[αMePhe(2-F)]TSD[Aib][Bip]-NH2)	> 10,000 fold
C[C@H](NC(=O)[C@H](CCC(=O)O)NC(=O)C(C)(C)NC(=O)[C@@H](N)Cc1c[nH]cn1)C(=O)N[C@H](C(=O)N[C@@H](Cc1ccccc1F)C(=O)N[C@H](C(=O)N[C@@H](CO)C(=O)N[C@@H](CC(=O)O)C(=O)N[C@@H](Cc1ccc(-c2ccccc2)cc1)C(=O)N[C@@H](Cc1ccc(-c2ccccc2)cc1)C(N)=O)[C@@H](C)O)[C@@H](C)O [RXL-3037] (H-H[Aib]EAT[Phe(2-F)]TSD[Bip][Bip]-NH2)	2000 fold

Incoming: API: value(readout= decreased potency (Aib/Ala comparison), system= hGLP1 receptor (Homo sapiens), query= C[C@H](NC(=O)[C@H](CC(=O)O)NC(=O)[C@H](CO)NC(=O)[C@@H](NC(=O)[C@H](Cc1ccccc1F)NC(=O)[C@@H](NC(=O)CNC(=O)[C@H](CCC(=O)O)NC(=O)C(C)(C)NC(=O)[C@@H](N)Cc1c[nH]cn1)[C@@H](C)O)[C@@H](C)O)C(=O)N[C@@H](Cc1ccc(-c2ccccc2)cc1)C(N)=O [RXL-3008] (H-H[Aib]EGT[Phe(2-F)]TSDA[Bip]-NH2) )
Outgoing: > 10,000 fold

Incoming: Give decreased potency (Aib/Ala comparison) (hGLP1 receptor (Homo sapiens)) of the following compound: C[C@H](NC(=O)[C@H](Cc1ccc(-c2ccccc2)cc1)NC(=O)[C@H](CC(=O)O)NC(=O)[C@H](CO)NC(=O)[C@@H](NC(=O)[C@H](Cc1ccccc1F)NC(=O)[C@@H](NC(=O)CNC(=O)[C@H](CCC(=O)O)NC(=O)C(C)(C)NC(=O)[C@@H](N)Cc1c[nH]cn1)[C@@H](C)O)[C@@H](C)O)C(N)=O [RXL-3009]
Outgoing: 10,000 fold

====

biological target: hGLP1 receptor (Homo sapiens); construct: expressed in transfected cells; host or cells: HEK (human embryonic kidney) cells co-expressing hGLP1 receptor and CRE-Luciferase; experiment: GLP-1 receptor agonism assay (HTRF cAMP, HEK cells co-expressing hGLP1 receptor and CRE-Luciferase); type: cell-based; conditions: Table 1, Phe6 modifications, 0% HSA; average of two independent experiments in triplicate (RXL-3039 tested once); read-out: cAMP EC50
ASSAY_METRIC: EC50
Quick note: unit goes after the number.

Incoming: Would you mind telling me what EC50 value was observed for C[C@@H](O)[C@H](NC(=O)CNC(=O)[C@H](CCC(=O)O)NC(=O)C(C)(C)NC(=O)[C@@H](N)Cc1c[nH]cn1)C(=O)N[C@@H](Cc1ccccc1[N+](=O)[O-])C(=O)N[C@H](C(=O)N[C@@H](CO)C(=O)N[C@@H](CC(=O)O)C(=O)N[C@@H](Cc1ccc(-c2ccccc2)cc1)C(=O)N[C@@H](Cc1ccc(-c2ccccc2)cc1)C(N)=O)[C@@H](C)O ?
Outgoing: 1.1 nM
